Origin of measurements: the supplement of paper PMC9732359

Experiment Notes: protein stability index of a GFP-peptide fusion (yeast GPS) (PSI 1-4); higher = more stable; sorted into four equal gates, so the index is relative within each strain
Assay Conditions: san1∆
# protein stability index >= 3 gives 1, anything below gives 0

See these solved cases before continuing.
Sequence Text	Class Label
SHTGLIRKYGLNICRQC [RPS29A]	0
AEHSQNKIDQSLQYIER [YJL041W/NSP1]	1

Does the reported protein stability index for LALEIIVRPAKGVATTR [RRP46] fall at or above the 3 mark?
0

Decide: protein stability index of DENKAGATSKPAFSFGA [YJL041W/NSP1] >= 3?
1

Identify whether the reported protein stability index of the following sequence is 3 or greater: NENPYNNGVSNLWKNIF [COR1]
0

Check the entry EVYTLVDSQGLPYNWDA [ARP7] : does protein stability index equal or exceed 3?
0

Please indicate if the recorded protein stability index for AEFKKRKIEAETRNGKV [YCS4] meets or exceeds 3.
1

* * *

We begin with a simple list: items and their reported protein stability index.
Experiment Notes: protein stability index of a GFP-peptide fusion (yeast GPS) (PSI 1-4); higher = more stable; sorted into four equal gates, so the index is relative within each strain
Assay Conditions: doa10∆
// response body must contain only the number

Solved cases below.
Sequence Text	Parameter Measured	Val
QLVEITEQIKMRILSND [SRB8]	protein stability index	2.49
DNSNVMTVKLESITYQK [RGR1]	protein stability index	2.88
LRKQKDSSTTSSNSQQS [ITC1]	protein stability index	3.12
KIATRGVMLWKEFDETI [FAS1]	protein stability index	3.02
PIYTGDGWVKLTYKSEL [YMR153W/NUP53]	protein stability index	2.24

The sequence KQNEQLHVEQLSGGQKT [SMC3] showed protein stability index equal to 2.07

Lab note: GDTVQFAEYIQANIQLY [PRE1] gave protein stability index of 2.11

Item: KQLIMESQEKYMEPFDL [NSL1] | protein stability index: 3.29

Reported protein stability index for TNTFGSNSAGTSLFGSS [YJL041W/NSP1] was 3.1

Field protein stability index (entry PVGSYEREQCRAGGAAA [PRE7] ) reads 3.02

Just so you know, measured protein stability index for YLRVSFKNTRETAQAIN [RPL17A] came out at 1.51

// sample ESFESYHNLTTHNSYEK [RPN6] , its protein stability index was 3.19

Lookup result for KLSDSKTSNIESVPIYS [BRR2] ; measured protein stability index: 2.5

The reported value for LYRYRFDPFQAVSRSMT [ECM29] in terms of protein stability index is 2.57

protein stability index recorded for this sequence, LAMVIIKEFVDDLKKDH [DSN1] , is 2.74

Record VIPIRRGYWGTNLGQPH [RPS2] , field protein stability index: 2.04

Looking up VTYTEHAKRKTVTSLDV [HHF1] , I see its protein stability index listed as 3.25

* * *

Experiment Notes: protein stability index of a GFP-peptide fusion (yeast GPS) (PSI 1-4); higher = more stable; sorted into four equal gates, so the index is relative within each strain
Assay Conditions: ubr1∆
Entries and their measured protein stability index follow.

Observe how each entry below is paired with its result.
Sequence Text	Val
SGKSNTSNDASNKKETK [ITC1]	3.18
AEFKKRKIEAETRNGKV [YCS4]	3.13
QEELKKRQELEEASQQQ [MED2]	3.29

The sequence listed as YQRSKRVNNPNVSLIKI [RPL33A] shows protein stability index equal to 3.21

The recorded protein stability index for VVSILEAGDSDILTTLA [RPL30] is 3.03

Entry under test: LFQVESAPKISSEIDRE [SIR4] . Its protein stability index was 2.42

Entry STAIKSLVALGIDPQDL [CDC53] ; protein stability index = 2.45

Recorded protein stability index (sequence ELSVVLSGIIQDIYYLA [RRI2] ): 2.6

Per the records, this sequence ( TKKISNFNSSLHKRQQF [YJL039C/NUP192] ) has protein stability index equal to 1.6

Form field protein stability index, entry CEQQPSQEREFSLLVKA [SIN4] : 3.04

The recorded protein stability index for LRHMPLASIPDIFITPT [SSN2] is 1.61

Per the record, NDDFSEVFEFKTFNKIQ [BRR2] has protein stability index of 2.64

* * *

Experiment Notes: protein stability index of a GFP-peptide fusion (yeast GPS) (PSI 1-4); higher = more stable; sorted into four equal gates, so the index is relative within each strain
Assay Conditions: pdr5∆
Answer Criterion not met if protein stability index is under 3, and Criterion met if it is 3 or more.

Solved cases (8 shown):
Sequence Text	Class Label
STSLGIPDFRSSEGFYS [SIR2]	Criterion not met
LIENGASVRIKDKFNQI [NAS6]	Criterion met
CRELHNKHLTTLVEIFL [SSN3]	Criterion not met
TTNLDIDLLTFQYGSRL [RPP1]	Criterion met
ILYGLVDKGAIMKNKDF [YJL039C/NUP192]	Criterion not met
LRAAQQQWGNDFYKRDP [FAS2]	Criterion not met
NVIDTQRKNGVTNSPLF [ECM29]	Criterion met
DRREKAERTMSKKETKL [SMC2]	Criterion met

Evaluate WQIEEAGNSQITSGGFL [SRB5] : protein stability index at minimum 3?
Criterion met

* * *

Reported values of protein stability index for individual entries
Experiment Notes: protein stability index of a GFP-peptide fusion (yeast GPS) (PSI 1-4); higher = more stable; sorted into four equal gates, so the index is relative within each strain
Assay Conditions: pdr5∆
Answer with the value's number alone.

Use the examples below as a reference point.
Sequence Text	protein stability index
DYSINSRYEPKVFDCGD [PRE7]	2.59
LGEFSITYTPVRHGRAG [RPS15]	1.85
SFQKIPLSRINENENFG [YML103C/NUP188]	3.12
FLTNYNVRMDTMANILY [RPB2]	3.02
LMEEIESLKKELQIFKT [YIL149C/MLP2]	2.96

Per the records, this sequence ( GILLLDSLIQLANRSKE [YJL039C/NUP192] ) has protein stability index equal to 1.74

Record summary for EPSDLRSWTLTSEMKVL [YGL100W/SEH1] : reported protein stability index = 2.77

Recorded result, HHIHHFEKKELQEKFLN [IRR1] , protein stability index: 1.61

For reference, reported protein stability index for AEEALEPSYIFEYLATV [PRE4] stands at 2.44

// protein stability index lookup, sequence = GIGGDHAKFSPVSTASY [RPC40] , result: 2.9

* * *

Experiment Notes: protein stability index of a GFP-peptide fusion (yeast GPS) (PSI 1-4); higher = more stable; sorted into four equal gates, so the index is relative within each strain
Assay Conditions: san1∆
Parameter Measured: protein stability index
Form: value (number only, do not type unit).

Examples with answers:
Sequence Text	protein stability index
TNKSKRPSITEAMMLKE [MED1]	2.89
STAIKSLVALGIDPQDL [CDC53]	2.81
KELENNLERLRSDLQSK [YIL149C/MLP2]	3.05
ENDNLDNVSKNALDKLR [YCG1]	3.08
VTLFQMAILLLYNDADV [CDC53]	1.67

Input NMLICAPTGSGKTNIAL [BRR2] . Output protein stability index: 2.12

The sequence listed as LPMDTNLFKINSIDVPI [YMR129W/POM152] has a reported protein stability index of 2.49

* * *

Experiment Notes: protein stability index of a GFP-peptide fusion (yeast GPS) (PSI 1-4); higher = more stable; sorted into four equal gates, so the index is relative within each strain
Assay Conditions: san1∆
Parameter Measured: protein stability index
Lab note: write the figure by itself, no unit.

Sequence Text	protein stability index
LDQLLVLEKKTRQASDL [RPN5]	3.1
LQRHLSLGIRPCLRKYE [RRP43]	2.82
DIPGVRFKVVKVSGVSL [RPS23A]	1.25
IFGSGFGSADDTYPYLT [FAS1]	1.73
AMIALSMILIQQTEKLN [RPN2]	1.45

Form field protein stability index, entry NPSQGVSNSGAQDEEIH [UBP6] : 2.04

So for VHDLNKYKSNTNNMEKI [SMC2] , the logged protein stability index turned out to be 3.02

The sequence identified as KKIIKCDEHMGLSLAGL [PRE5] registered its protein stability index at 3.15

Sure, the documented protein stability index for QLKTGLAAIVSTVIEEF [YGL172W/NUP49] is 2.83

The recorded protein stability index for NTNNNNSTGHSSNTNNN [SWI1] is 2.41

Reported protein stability index for IDYSNSQIRLYAKFKRN [RGR1] was 2.45

For MQKPVPFVPVLDRRFEI [FAS1] the sequence record lists protein stability index as 1.82

Field protein stability index (entry IYSSDAQGDPNLEPLIA [NUT1] ) reads 3.04

* * *

Experiment Notes: protein stability index of a GFP-peptide fusion (yeast GPS) (PSI 1-4); higher = more stable; sorted into four equal gates, so the index is relative within each strain
Assay Conditions: pdr5∆
Listing: protein stability index of selected sequences
Just the number, please, no unit attached.

Sequence Text	protein stability index
KKNIDYQNRSTRSQFCL [RRI1]	2.94

The recorded protein stability index for PYGVYHPPFIKYACLAI [SIN4] is 1.44

response.value for SSISVMGENEKPDVTYA [RPT3] (field: protein stability index) = 3.25

The value of protein stability index measured for the sequence VTFSPTGRLFQVEYALE [PRE5] turned out to be 2.77

Record summary for RSPVFALNMLPSEILHL [GRR1] : reported protein stability index = 2.27
